- System: BT-549 breast
- Assay comment: NCI-60 one-dose screen, 48 h
- Assay context: 10 µM unless noted
This is part of a sample that, as a whole, favours compounds with a hit. Of some 83,000 tested, about 20% had one in any assay. Active and inactive are the calls of the source. How the source made its calls: active means growth percent below 10; inactive means the rest.
Log the outcome using a class from active, inactive

Worked cases, answers included:
Molecule	Target	Assigned class
O=C(C1=Cc2cc3ccccc3n2Cc2cnnn21)c1ccc(O)cc1	BT-549 breast	inactive
CN1CCN(C(=O)[C@@]2(C)CC[C@]3(C)CC[C@]4(C)C(=CC[C@@H]5[C@@]6(C)CCC(=O)NC(C)(C)[C@@H]6CC[C@]54C)[C@@H]3C2)CC1	BT-549 breast	inactive
CC1(C)N=C(N)N=C(N)N1c1ccc(CCCCc2ccccc2)c(Cl)c1	BT-549 breast	active
C=C1C(=O)O[C@H]2[C@H]1CC/C(COC(=O)CSCSCC(=O)OC/C1=C/CC[C@@]3(C)O[C@H]3[C@H]3OC(=O)C(=C)[C@@H]3CC1)=C\CC[C@@]1(C)O[C@@H]21	BT-549 breast	active
C[C@]1(O)CC(=O)[C@]2(O)C3=C(C=C[C@]2(O)C1)C(=O)c1c(O)cccc1C3=O	BT-549 breast	inactive

Could you kindly confirm the outcome this assay logged for N#C/C(=C\c1ccc([N+](=O)[O-])cc1)n1nnc2cc(F)c(F)cc21 ?
inactive

Then what about the molecule O=C(Nc1ncc(Cc2cc(C(F)(F)F)ccc2Cl)s1)c1cccs1 ?
inactive

Then what about the molecule O=C(Nc1ccc(Br)cc1)C1=NCCCCN1 ?
inactive

Then what about the molecule Nc1c(C(=O)Nc2cccc(Cl)c2)sc2nc3c(cc12)CCCC3 ?
inactive

* * *

- System: SK-OV-3 ovarian
- Assay comment: NCI-60 one-dose screen, 48 h (100 = growth as untreated, 0 = no growth, -100 = all killed)
- Assay context: 10 µM unless noted
This is part of a sample that, as a whole, favours compounds with a hit. Of some 83,000 tested, about 20% had one in any assay.
Below, each entry is listed with its recorded growth.
Return type: number; implicit unit %.

Check out these entries, answers already filled in.
Molecule	Quantity	Measured number
COc1ccc(/C=C/C(=O)c2cc(OC)c(OC)c(OC)c2)cc1OCC(=O)Nc1nc2ccc(OC(F)(F)F)cc2s1	growth	-11.8
O=C(O)[C@@H](Cc1ccc2ccccc2c1)NC(=O)n1c2ccccc2c2ccccc21	growth	39.7
NC1(CO)COC(c2ccccc2)OC1 (stereo unspecified)	growth	101

Can you look up the measured growth of O=C(CCl)NNc1nccc(Nc2ccc(S(=O)(=O)Nc3ccncc3)cc2)n1 for me?
90.5

Then what about the molecule COc1cccc(-c2cc(-c3cccc(Cl)c3)c(C#N)c(=O)[nH]2)c1 ?
81

Then what about the molecule CCN1C(=O)N(CC)C2Nn3c(s/c(=C\c4ccccc4Br)c3=O)=NC21 (stereo unspecified) ?
44.7

* * *

- System: NCI-H460 lung
- Assay comment: NCI-60 one-dose screen, 48 h
- Assay context: 10 µM unless noted
The panel holds about 83,000 compounds, 20% with a hit somewhere; the sample as a whole holds those more often. The source made the active and inactive calls. How the source made its calls: active means growth percent below 10; inactive means the rest.
Log the outcome using a class from yes = active, no = inactive

Worked cases, answers included:
Compound	Target	Assigned class
Clc1ccccc1-c1cnn2cc(-c3ccccc3)cnc12	NCI-H460 lung	no
CCOC(=O)C(=CNc1cnc(Nc2ccc(N3CCOCC3)cc2)nc1Oc1ccc(OC)cc1)C(=O)OCC	NCI-H460 lung	yes
CCc1n(Cc2ccc3ccccc3n2)cc[n+]1Cc1ccc2ccccc2n1	NCI-H460 lung	no
CCOc1ccc(-n2nc(C(=O)NCc3ccccc3OC)nc2-c2cc(OC)c(OC)c(OC)c2)cc1	NCI-H460 lung	no
O=C1/C(=C2\SC(=S)N(C3CC3)C2=O)SC(=S)N1C1CC1	NCI-H460 lung	no

Lab note: next compound to report on.
Could you kindly confirm the outcome this assay logged for Cc1ccc(-c2nc(N3CCNCC3)c3oc(-c4ccc(C)cc4)nc3n2)cc1 ?
yes

* * *

- Tested on: NCI/ADR-RES ovarian
- Assay comment: NCI-60 one-dose screen, 48 h
- Assay context: 10 µM unless noted
The panel holds about 83,000 compounds, 20% with a hit somewhere; the sample as a whole holds those more often. Active and inactive are the calls of the source. How the source made its calls: active means growth percent below 10; inactive means the rest.
Log the outcome using a class from TRUE for active, FALSE for inactive

Worked cases, answers included:
Molecule	Assigned class
CC1(C)N=C(N)N=C(N)N1c1cccc(CCc2ccccc2)c1	FALSE
CN1CCN(C(=O)[C@@]2(C)CC[C@]3(C)CC[C@]4(C)C(=CC[C@@H]5[C@@]6(C)CCC(=O)NC(C)(C)[C@@H]6CC[C@]54C)[C@@H]3C2)CC1	FALSE
O=C1Nc2ccccc2/C1=C\c1c[nH]c2ccc(Br)cc12	FALSE
COc1ccc(C(=O)Cn2c(C(=O)c3ccc(OC)cc3)nc3ccccc32)cc1	TRUE
O=C1Nc2ccccc2/C1=C/c1cccn1C(=O)c1ccc(Cl)s1	FALSE

Could you kindly confirm the outcome this assay logged for NC(=O)c1c(NC(=O)c2cccs2)sc2c1CCC(=O)C2 ?
FALSE

Then what about the molecule COC(=O)c1nc(-c2ccccc2)oc1S(=O)(=O)NCC(c1ccc(Cl)cc1)N1CCOCC1 (stereo not drawn) ?
FALSE

Then what about the molecule O=C(/C=C/c1ccc(Oc2ccc(Br)cc2)cc1)c1ccc(Br)cc1 ?
FALSE

Then what about the molecule Oc1ccc(/C=C/c2ccc(O)cc2)cc1 ?
FALSE

Then what about the molecule O=C(/C=C/c1ccccc1)c1ccc(Nc2nc(Nc3ccc(F)cc3)nc(Nc3ccc(Cl)cc3)n2)cc1 ?
FALSE

Then what about the molecule C/C(Cc1ccc(Cl)cc1)=C(\c1ccc(OCCCN(C)C)cc1)c1ccc(OC(=O)Cc2ccccc2)cc1 ?
FALSE

Then what about the molecule COc1ccc(/C=C/c2c(C(=O)/C=C/c3ccccc3)c(C)nc3ccccc23)cc1 ?
TRUE

* * *

- System: OVCAR-5 ovarian
- Assay comment: NCI-60 one-dose screen, 48 h (100 = growth as untreated, 0 = no growth, -100 = all killed)
- Assay context: 10 µM unless noted
Compounds without any hit were thinned out: in the full panel of roughly 83,000, 20% have a hit.
Please respond with met when measured growth is strictly beneath 90%, and with not met in all other cases.

Compound	Assigned class
CN1CCN(c2ccc(NC(=O)c3cncnc3Nc3ccc(OCc4cccc(F)c4)c(Cl)c3)cc2)CC1	met
COc1ccc(C2=CC(c3cc(OC)c(OC)c(OC)c3)n3ncnc3N2)cc1 (stereo not given)	met
O=C1/C=C/[C@@H](O)[C@@H]2C[C@@H](O)C[C@H]2/C=C/CCC[C@@H](O)CCO1	not met
Oc1c(CN2CCCC2)cc(CSCc2ccccc2)c2cccnc12	met

Hello, I'm reviewing records and need to know if growth of Cc1ccc(C(=O)c2ccc(CC(=O)NN3C(=O)c4ccccc4C3=O)n2C)cc1 is below 90%. Could you check?
not met

* * *

- System: EKVX NSCLC
- Assay comment: NCI-60 one-dose screen, 48 h
- Assay context: 10 µM unless noted
About 83,000 compounds went through this panel and 20% of them were active in at least one assay; those are over-represented in the sample as a whole. Calls of active or inactive are those of the source. Rule for the calls: active = growth percent below 10; inactive = the rest.
Log the outcome using a class from active, inactive

Molecule	Target	Assigned class
COc1ccc(Oc2nc(Nc3ccc(N4CCOCC4)cc3)ncc2NC(=O)Nc2cc(OC)cc(OC)c2)cc1	EKVX NSCLC	inactive
Nc1nc2c(c3ncccc13)C(c1cccc(Cl)c1)Cc1ncccc1-2 (centres undefined)	EKVX NSCLC	inactive

Could you kindly confirm the outcome this assay logged for CCOC(=O)c1[nH]c2c(c1C)-c1[nH]c(=O)c(S(=O)(=O)c3ccccc3)cc1SC2 ?
active

Then what about the molecule Cc1nc2cc(O)c(O)cc2cc1Oc1ccc(NC(=O)Nc2ccc(Cl)c(Cl)c2)cc1 ?
inactive

Then what about the molecule CC(C)(C)n1cc(-c2ccnc(NCCNS(=O)(=O)c3ccc(O)cc3)c2)c(-c2cccc(O)c2)n1 ?
inactive

Then what about the molecule Cc1ccc(/C=C(\C#N)n2nnc3cc(F)c(F)cc32)cc1 ?
inactive

* * *

Below, each entry is listed with its recorded growth.
- Tested on: K-562 leukemia
- Assay comment: NCI-60 one-dose screen, 48 h (100 = growth as untreated, 0 = no growth, -100 = all killed)
- Assay context: 10 µM unless noted
About 83,000 compounds went through this panel and 20% of them were active in at least one assay; those are over-represented in the sample as a whole.
Return type: number; implicit unit %.

Check out these entries, answers already filled in.
Test smiles	Readout units	growth
O=C(O)[C@@H](Cc1ccc2ccccc2c1)NC(=O)n1c2ccccc2c2ccccc21	%	11.6
C/C(=N\O)c1ccc(NC(=O)CSc2nnc(-c3cc(-c4ccc(S(N)(=O)=O)cc4)nc4ccccc34)n2-c2ccccc2)cc1	%	43

Turning to the following compound.
Can you look up the measured growth of Cc1cccc(-c2nc(Nc3ccc4ncsc4c3)c3ccccc3n2)n1 for me?
28.5
